B1: library; a variant is named by its letters at N, in order (parent)
chain: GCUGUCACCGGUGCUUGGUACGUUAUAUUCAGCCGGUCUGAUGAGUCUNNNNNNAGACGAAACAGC

# Variants of: B1
# test summary: normalized RNA/DNA level without ligand (relative to sTRSVctl = 100) (log10 (% of sTRSVctl)); HEK293T overexpressing SLC46A1; higher = less ribozyme self-cleavage, higher mRNA level
# measurement conditions: without (6R,S)-folinic acid; ligand present: no
value kind: normalized RNA/DNA level without ligand (log10)
Give only the figure.

input: Query: normalized RNA/DNA level without ligand (log10); subject: UUUCCC
output: 2.04

input: What normalized RNA/DNA level without ligand (log10) value was documented for this variant, CCAAGG ?
output: 2

input: So what does the record say about normalized RNA/DNA level without ligand (log10) for GGGAAG ?
output: 1.96

input: Bench note: what normalized RNA/DNA level without ligand (log10) did CCCGUG show?
output: 2.02

input: What value of normalized RNA/DNA level without ligand (log10) has been recorded for this entry: UCACGC
output: 2.04

input: I'd like to know its normalized RNA/DNA level without ligand (log10). The variant in question is UCAAUU
output: 2.01

input: Consider the variant UACAGC and give its measured normalized RNA/DNA level without ligand (log10).
output: 1.99

input: Item under review: AUCUUC . Reported normalized RNA/DNA level without ligand (log10)?
output: 2.07

input: # get_value(readout='normalized RNA/DNA level without ligand (log10)', item= AUCCGC )
output: 2.05

input: Given GAAUAA , state its recorded normalized RNA/DNA level without ligand (log10).
output: 1.98

input: normalized RNA/DNA level without ligand (log10) lookup needed for CAUCUU , thanks.
output: 2.03

input: For the variant CUACUU , what normalized RNA/DNA level without ligand (log10) is on record?
output: 2.03

input: Query (variant): CCGGCG ; field requested: normalized RNA/DNA level without ligand (log10)
output: 2.05

input: Field request: normalized RNA/DNA level without ligand (log10) | item: CGUAUU
output: 2.03

input: Field request: normalized RNA/DNA level without ligand (log10) | item: CUCACC
output: 2.06

input: Which measured normalized RNA/DNA level without ligand (log10) value corresponds to ACCGAA ?
output: 2.01

input: # query: normalized RNA/DNA level without ligand (log10) of entry AAUCUC
output: 2.07

input: Recorded normalized RNA/DNA level without ligand (log10) for AUGGGU , please?
output: 1.82

input: Consider the variant shown here: GUGAAC What is its recorded normalized RNA/DNA level without ligand (log10)?
output: 1.91

input: Item GAAACG has what recorded normalized RNA/DNA level without ligand (log10)?
output: 1.96

input: Field request: normalized RNA/DNA level without ligand (log10) | item: UGUGAA
output: 1.9

input: Could you tell me which normalized RNA/DNA level without ligand (log10) is on file for AGGCUG ?
output: 2.06

input: Could you share which normalized RNA/DNA level without ligand (log10) value was measured for UCCCUC ?
output: 2.07

input: Which value of normalized RNA/DNA level without ligand (log10) has been reported for UUACGA in the records?
output: 2.01

input: Sample AGACGU — what was its normalized RNA/DNA level without ligand (log10)?
output: 1.98

input: Would you kindly share the measured normalized RNA/DNA level without ligand (log10) for GCCUGC ?
output: 2.05

input: Quick one: normalized RNA/DNA level without ligand (log10) of GACUAC ?
output: 2.04

input: Endpoint output: normalized RNA/DNA level without ligand (log10) of CAUCGC . Value?
output: 2.02

input: Entry GACUCG : reported normalized RNA/DNA level without ligand (log10) = ?
output: 2.03

input: What measured normalized RNA/DNA level without ligand (log10) goes with AUGUGG ?
output: 1.84

input: Endpoint output: normalized RNA/DNA level without ligand (log10) of GUUCCC . Value?
output: 2.07

input: # get_value(readout='normalized RNA/DNA level without ligand (log10)', item= CGCGGG )
output: 1.94

input: Any idea what normalized RNA/DNA level without ligand (log10) was measured for UAAUUC ?
output: 2.01

input: Reported normalized RNA/DNA level without ligand (log10) for CAGUUU : what is it?
output: 1.99

input: // normalized RNA/DNA level without ligand (log10) lookup, key: CCGGUU
output: 2.04

input: Would you kindly share the measured normalized RNA/DNA level without ligand (log10) for GUGACG ?
output: 1.95

input: Quick one: normalized RNA/DNA level without ligand (log10) for UUCGUU ?
output: 2.01

input: Please give the measured normalized RNA/DNA level without ligand (log10) for this variant: AGCCCU
output: 2.08

input: # input variant: AGAUCA ; wanted: its normalized RNA/DNA level without ligand (log10)
output: 2.01

input: Give its normalized RNA/DNA level without ligand (log10) value. Item: GAUACC
output: 2

input: Quick one: normalized RNA/DNA level without ligand (log10) for GGUAGG ?
output: 1.93

input: Recorded normalized RNA/DNA level without ligand (log10) of CAAGUG , please.
output: 2

input: Looking for the measured normalized RNA/DNA level without ligand (log10) of CCCGCU , can you help?
output: 2.11

input: Name the recorded normalized RNA/DNA level without ligand (log10) for UGUAGU .
output: 1.9

input: State the recorded normalized RNA/DNA level without ligand (log10) for this entry: CACACC
output: 2.06

input: Need normalized RNA/DNA level without ligand (log10), item CUGCUU
output: 2.05

input: Any idea what normalized RNA/DNA level without ligand (log10) was measured for CUAUAC ?
output: 2

input: So what does the record say about normalized RNA/DNA level without ligand (log10) for UAGGUG ?
output: 1.68

input: Which normalized RNA/DNA level without ligand (log10) reading was recorded for the variant UGAAUG ?
output: 1.76

input: I'd like to know its normalized RNA/DNA level without ligand (log10). The variant in question is UACGUA
output: 1.92

input: I am curious: what normalized RNA/DNA level without ligand (log10) value has been reported for GCUUGU ?
output: 2

input: Entry under review: ACCCGC . Reported normalized RNA/DNA level without ligand (log10)?
output: 2.04

input: // query normalized RNA/DNA level without ligand (log10) value for entry GUCGGC
output: 2

input: Entry under review: UCCUGC . Reported normalized RNA/DNA level without ligand (log10)?
output: 2.06

input: Which normalized RNA/DNA level without ligand (log10) is listed for CCGAUU ?
output: 2.06

input: Name the recorded normalized RNA/DNA level without ligand (log10) for CCGAAU .
output: 2

input: Would you kindly share the measured normalized RNA/DNA level without ligand (log10) for GGUUAC ?
output: 2

input: Quick check: normalized RNA/DNA level without ligand (log10) of AGUCGU ?
output: 1.98

input: I have this variant here, CGUCCG , and I need its recorded normalized RNA/DNA level without ligand (log10).
output: 2.04

input: I'd like to know its normalized RNA/DNA level without ligand (log10). The variant in question is GUGUUU
output: 2.03

input: Looking for the measured normalized RNA/DNA level without ligand (log10) of CAUGUC , can you help?
output: 2.03

input: Fill in the blank: the reported normalized RNA/DNA level without ligand (log10) of CGAUUU is ____.
output: 1.98

input: So what's the measured normalized RNA/DNA level without ligand (log10) for this one? GGAAAA
output: 1.98

input: Entry AAGAAA has what normalized RNA/DNA level without ligand (log10)?
output: 1.94

input: Find the recorded normalized RNA/DNA level without ligand (log10) belonging to CGUACC and report it.
output: 2.1

input: // query normalized RNA/DNA level without ligand (log10) value for entry CGAACU
output: 2

input: Please look up its normalized RNA/DNA level without ligand (log10): CUCGGA
output: 2.04

input: Please give the measured normalized RNA/DNA level without ligand (log10) for this variant: ACCACC
output: 2.09

input: GET /values?readout=normalized RNA/DNA level without ligand (log10)&item= AGCAAG
output: 1.94

input: Consider the variant shown here: CGUAAC What is its recorded normalized RNA/DNA level without ligand (log10)?
output: 1.98

input: # normalized RNA/DNA level without ligand (log10) lookup, item GACAUA
output: 1.98

input: Can you share its normalized RNA/DNA level without ligand (log10)? I mean this variant: CUCGCG
output: 2.04

input: I am curious: what normalized RNA/DNA level without ligand (log10) value has been reported for CCCCGA ?
output: 2.03

input: So what's the measured normalized RNA/DNA level without ligand (log10) for this one? AGUGGC
output: 2.04

input: Query: normalized RNA/DNA level without ligand (log10); subject: ACUCGA
output: 1.99

input: Tell me the measured normalized RNA/DNA level without ligand (log10) of AAACGC , please.
output: 2

input: Given the entry CUCAGG , report its measured normalized RNA/DNA level without ligand (log10).
output: 1.99

input: Requested read-out: normalized RNA/DNA level without ligand (log10). Entry: AAUACA
output: 2

input: Find the recorded normalized RNA/DNA level without ligand (log10) belonging to GCUAUG and report it.
output: 1.99

input: Consider the variant CUAUUC and give its measured normalized RNA/DNA level without ligand (log10).
output: 2.06

input: Find the recorded normalized RNA/DNA level without ligand (log10) belonging to GUCGCC and report it.
output: 2.02

input: Sample CCGUAG — what was its normalized RNA/DNA level without ligand (log10)?
output: 1.93

input: Item UGGUGC has what recorded normalized RNA/DNA level without ligand (log10)?
output: 2.02

input: Would you mind telling me what normalized RNA/DNA level without ligand (log10) value was observed for GAACGG ?
output: 1.94

input: What value of measured normalized RNA/DNA level without ligand (log10) is listed for AUGCGU ?
output: 1.95

input: Requested read-out: normalized RNA/DNA level without ligand (log10). Entry: AGGCGA
output: 2.03

input: Query: normalized RNA/DNA level without ligand (log10); subject: AUUGCA
output: 1.98

input: Param item = AUAAGA ; retrieve measured normalized RNA/DNA level without ligand (log10).
output: 1.97

input: Fill in: normalized RNA/DNA level without ligand (log10) of CUACGC is ___
output: 2.02

input: # normalized RNA/DNA level without ligand (log10) lookup, item GCUGUA
output: 2.02

input: For UUGCAU , what is its reported normalized RNA/DNA level without ligand (log10)?
output: 1.97
